- Species on record: Rattus norvegicus
- Test Name: DrugMatrix - Regimen: Daily Repeat
- Format: toxicity, organism-based, Sprague-Dawley
- Parameters: regimen Daily Repeat, gender Male, age 6-8 weeks
- Test Conditions: in vivo, po, 0 mg/kg, 72 h, tissue Plasma, route oral GAVAGE, dose level Control, time 3 day, vehicle .5 % CMC
Reported ALKALINE PHOSPHATASE values for a set of compounds
// units = u/L; emit number, no label

Worked cases, answers included:
CC[C@@H](CO)NCCN[C@@H](CC)CO = 372
Cc1onc(-c2ccccc2)c1-c1ccc(S(N)(=O)=O)cc1 = 388.17
CC(C)[C@H]1CC[C@H](C(=O)N[C@H](Cc2ccccc2)C(=O)O)CC1 [NATEGLINIDE] = 391
C#C[C@]1(O)CC[C@H]2[C@@H]3CCc4cc(OC)ccc4[C@H]3CC[C@@]21C = 378.5

Data request: Fill blank: measured ALKALINE PHOSPHATASE of the compound CC(=O)CC(c1ccccc1)c1c(O)c2ccccc2oc1=O (stereo not given) is ____.
Data returned: 388.83
